- MEASUREMENT NOTES: Half life in CD rat at 5 mg/kg, iv by LC-MS/MS analysis
- Format: ADME, organism-based
- Set-up: dose 5 mg/kg, route intravenous
- CONDITION SET: in vivo
Label Condition met when half-life < 10 h; otherwise Condition not met.

Dear reviewer, please state whether Cc1ccc(C(=O)Nc2ccc(CN3CCN(C)CC3)c(C(F)(F)F)c2)cc1C#Cc1cnc2nc[nH]c2c1 has half-life strictly beneath 10 h.
Condition met

And for Cc1ccc(C(=O)Nc2ccc(CN3CCN(C)CC3)c(C(F)(F)F)c2)cc1C#Cc1cnc2[nH]ccc2c1 ?
Condition not met

Same for CN1CCN(Cc2ccc(NC(=O)c3ccc(F)c(C#Cc4cnc5cccnn45)c3)cc2C(F)(F)F)CC1
Condition met

Same read-out for Cc1ccc(C(=O)Nc2ccc(CN3CCN(C)CC3)c(C(F)(F)F)c2)cc1C#Cc1cnc2cnccn12 ?
Condition met

Another compound to look at: Cc1ccc(C(=O)Nc2cc(-n3ccnc3)cc(C(F)(F)F)c2)cc1C#Cc1cnc2c(N)cccn12
Condition not met

----------
- MEASUREMENT NOTES: Half life in CD rat at 5 mg/kg, iv by LC-MS/MS analysis
- Assay type: ADME, organism-based
- Parameters: dose 5 mg/kg, route intravenous
- CONDITION SET: in vivo
PROPERTY: half-life
Express the reported value numerically, then name its unit.

Query (molecule): Cc1ccc(C(=O)Nc2ccc(CN3CCN(C)CC3)c(C(F)(F)F)c2)cc1C#Cc1cnc2[nH]c(=O)[nH]c2c1 ; field requested: half-life
5 h

What do you have for Cc1ccc(C(=O)Nc2ccc(CN3CCN(CCO)CC3)c(C(F)(F)F)c2)cc1C#Cc1cnc2cccnn12 ?
3.5 h

Subsequent entry: CCN1CCN(Cc2ccc(NC(=O)c3ccc(C)c(C#Cc4cnc5cccnn45)c3)cc2C(F)(F)F)CC1
8.9 h

Now give it for Cc1ccc(C(=O)Nc2cc(-n3ccnc3)cc(C(F)(F)F)c2)cc1C#Cc1cnc2ccccn12 too.
9.1 h

----------
Assignment: determine reported concentration at 6 h for the given compounds.
- Test system: Mus musculus
- MEASUREMENT NOTES: Plasma concentmouseion in CD mouse at 30 mg/kg, po after 6 hrs by LC-MS/MS analysis
Please reply with the bare figure in ng/mL and do not write the unit itself.

Fill in: concentration at 6 h of CN1CCN(Cc2ccc(NC(=O)c3ccc(F)c(C#Cc4cnc5cccnn45)c3)cc2C(F)(F)F)CC1 is ___
2100

Follow-up item: CCN1CCN(Cc2ccc(NC(=O)c3ccc(C)c(C#Cc4cnc5cccnn45)c3)cc2C(F)(F)F)CC1
387

----------
Assignment: determine reported Cmax for the given compounds.
- MEASUREMENT NOTES: Cmax in CD rat at 15 mg/kg, po by LC-MS/MS analysis
- Type: ADME, organism-based
- Parameters: dose 15 mg/kg, route oral
- CONDITION SET: CD, in vivo
Put down the number, then write its unit next to it.

Dear colleague, I am looking for the recorded Cmax of the following compound: Cc1ccc(C(=O)Nc2ccc(CN3CCN(C)CC3)c(C(F)(F)F)c2)cc1C#Cc1cnc2ccccn12
149 ng/mL

Entry to check: Cc1ccc(C(=O)Nc2cc(-n3ccnc3)cc(C(F)(F)F)c2)cc1C#Cc1cnc2ccccn12
2350 ng/mL

Item: CN1CCN(Cc2ccc(NC(=O)c3ccc(Cl)c(C#Cc4cnc5cccnn45)c3)cc2C(F)(F)F)CC1
302 ng/mL

What do you have for CCN1CCN(Cc2ccc(NC(=O)c3ccc(C)c(C#Cc4cnc5cccnn45)c3)cc2C(F)(F)F)CC1 ?
215 ng/mL

Now this one: Cc1ccc(C(=O)Nc2ccc(CN3CCN(C)CC3)c(C(F)(F)F)c2)cc1C#Cc1cnc2nc[nH]c2c1
32.7 ng/mL

Item: CN1CCN(Cc2ccc(NC(=O)c3ccc(F)c(C#Cc4cnc5cccnn45)c3)cc2C(F)(F)F)CC1
1180 ng/mL

What do you have for Cc1ccc(C(=O)Nc2ccc(CN3CCN(C)CC3)c(C(F)(F)F)c2)cc1C#Cc1cnc2[nH]ccc2c1 ?
71 ng/mL

# iterate: Cc1ccc(C(=O)Nc2ccc(CN3CCN(CCO)CC3)c(C(F)(F)F)c2)cc1C#Cc1cnc2cccnn12
164 ng/mL

Here is the next compound: Cc1ccc(C(=O)Nc2ccc(CN3CCN(C)CC3)c(C(F)(F)F)c2)cc1C#Cc1cnc2cnccn12
57.8 ng/mL

Next compound: Cc1ccc(C(=O)Nc2cc(-n3ccnc3)cc(C(F)(F)F)c2)cc1C#Cc1cnc2c(N)cccn12
234 ng/mL

----------
- MEASUREMENT NOTES: Oral bioavailability in CD rat at 15 mg/kg by LC-MS/MS analysis
- Type: ADME, organism-based
- CONDITION SET: in vivo
For each entry below, report its bioavailability value.
Number in %, nothing else.

Looking for the measured bioavailability of CN1CCN(Cc2ccc(NC(=O)c3ccc(Cl)c(C#Cc4cnc5cccnn45)c3)cc2C(F)(F)F)CC1 , can you help?
79.2

Next compound: Cc1ccc(C(=O)Nc2ccc(CN3CCN(C)CC3)c(C(F)(F)F)c2)cc1C#Cc1cnc2cnccn12
16.7

What about this compound? Cc1ccc(C(=O)Nc2cc(-n3ccnc3)cc(C(F)(F)F)c2)cc1C#Cc1cnc2ccccn12
42.4

// same read-out, input: CCN1CCN(Cc2ccc(NC(=O)c3ccc(C)c(C#Cc4cnc5cccnn45)c3)cc2C(F)(F)F)CC1
53

CN1CCN(Cc2ccc(NC(=O)c3ccc(F)c(C#Cc4cnc5cccnn45)c3)cc2C(F)(F)F)CC1 , same question.
62.3

Moving on to the next compound: Cc1ccc(C(=O)Nc2ccc(CN3CCN(C)CC3)c(C(F)(F)F)c2)cc1C#Cc1cnc2cccnn12 [PONATINIB]
18.2

----------
- MEASUREMENT NOTES: Half life in CD rat at 15 mg/kg, po by LC-MS/MS analysis
- Format: ADME, organism-based
- Parameters: dose 15 mg/kg, route oral
- CONDITION SET: in vivo
Could you please report measured half-life for the items listed next?
Note: unit h is implicit; provide only the numeric part.

Recorded half-life for Cc1ccc(C(=O)Nc2cc(C(F)(F)F)ccn2)cc1C#Cn1cnc2c(NC3CC3)ncnc21 , please?
1.5

For Cc1ccc(C(=O)Nc2cc(-n3ccnc3)cc(C(F)(F)F)c2)cc1C#Cc1cnc2c(N)cccn12 then?
5.2

Next up: CN1CCN(Cc2ccc(NC(=O)c3ccc(Cl)c(C#Cc4cnc5cccnn45)c3)cc2C(F)(F)F)CC1
20.2

Another molecule: Cc1ccc(C(=O)Nc2cc(-n3ccnc3)cc(C(F)(F)F)c2)cc1C#Cc1cnc2ccccn12
21.6

----------
Please provide measured Tmax for the entries that follow.
- MEASUREMENT NOTES: Tmax in CD rat at 15 mg/kg, po by LC-MS/MS analysis
- Assay type: ADME, organism-based
- Set-up: dose 15 mg/kg, route oral
- CONDITION SET: in vivo
Dear colleague, please return just the value in h, with no unit written.

What value of Tmax has been reported for the following molecule? CN1CCN(Cc2ccc(NC(=O)c3ccc(Cl)c(C#Cc4cnc5cccnn45)c3)cc2C(F)(F)F)CC1
6

Try CCN1CCN(Cc2ccc(NC(=O)c3ccc(C)c(C#Cc4cnc5cccnn45)c3)cc2C(F)(F)F)CC1 next.
6

Subsequent entry: Cc1ccc(C(=O)Nc2cc(-n3ccnc3)cc(C(F)(F)F)c2)cc1C#Cc1cnc2ccccn12
6

Param item: Cc1ccc(C(=O)Nc2ccc(CN3CCN(C)CC3)c(C(F)(F)F)c2)cc1C#Cc1cnc2cccnn12
6

Please answer likewise for Cc1ccc(C(=O)Nc2ccc(CN3CCN(C)CC3)c(C(F)(F)F)c2)cc1C#Cc1cnc2nc[nH]c2c1
6

----------
- MEASUREMENT NOTES: Half life in CD rat at 5 mg/kg, iv by LC-MS/MS analysis
- Assay type: ADME, organism-based
- Parameters: dose 5 mg/kg, route intravenous
- CONDITION SET: in vivo
PROPERTY: half-life (min)
Write the answer as a number in min, unit excluded.

If you can, please state the reported half-life value of CN1CCN(Cc2ccc(NC(=O)c3ccc(Cl)c(C#Cc4cnc5cccnn45)c3)cc2C(F)(F)F)CC1 .
594

Can you handle Cc1ccc(C(=O)Nc2ccc(CN3CCN(C)CC3)c(C(F)(F)F)c2)cc1C#Cc1cnc2cccnn12 [PONATINIB] next?
612

Ok, now Cc1ccc(C(=O)Nc2ccc(CN3CCN(C)CC3)c(C(F)(F)F)c2)cc1C#Cc1cnc2ccccn12
612
